# System: MDA-MB-231
# TEST: Cytotoxicity against human MDA-MB-231 cells assessed as cell growth inhibition after 48 hrs by MTT assay
# Format: functional, cell-based
# CONDITION INFO: MDA-MB-231, 48 h

# COMPOUND, IC50 / µM
measured = [
    ("O=C1N(Cc2ccc3c(c2)OCO3)c2ccccc2C12Nc1ccccc1-n1cccc12 (stereo not given)", 30),
    ("O=C1Nc2ccc([N+](=O)[O-])cc2C12Nc1ccccc1-n1cccc12 (stereo not given)", 17.4),
    ("O=C1Nc2ccc(Cl)cc2C12Nc1ccccc1-n1cccc12 (stereo not given)", 26.3),
    ("O=C1N(Cc2ccccc2)c2ccc(Cl)cc2C12Nc1ccccc1-n1cccc12 (stereo not given)", 26.6),
    ("O=C1N(Cc2ccc3c(c2)OCO3)c2ccc(Cl)cc2C12Nc1ccccc1-n1cccc12 (stereo not given)", 2.34),
]
